# tgt: T1, E. coli β clamp (β subunit of DNA polymerase III, dnaN gene product) (E. coli, UniProt P0A988 1-366)
# T1 construct: Expressed in BL21 E. coli from pET15b with an N-terminal tag; also called β ring; β protein; not shown: N-terminal tag from plasmid pET15b ('N-tagged protein', purified on Ni-NTA)
# protocol summary: ITC, peptide 400 µM into β ring 20 µM, 25 °C, second experiment
Square brackets hold non-standard residues; d marks the D form. Phe(3,4-Cl2) = N[C@@H](Cc1ccc(Cl)c(Cl)c1)C(=O)O; Phe(4-Br) = N[C@@H](Cc1ccc(Br)cc1)C(=O)O; Phe(4-Cl) = N[C@@H](Cc1ccc(Cl)cc1)C(=O)O; Phe(4-Me) = Cc1ccc(C[C@H](N)C(=O)O)cc1; Cha = N[C@@H](CC1CCCCC1)C(=O)O
// reported ΔG per item
Could you give me the number in kcal/mol? Just the number is fine.

Recorded ΔG, per entry:
Ac-Q[Cha]DL[Phe(4-Cl)]-OH (SMILES CC(=O)N[C@@H](CCC(N)=O)C(=O)N[C@@H](CC1CCCCC1)C(=O)N[C@@H](CC(=O)O)C(=O)N[C@@H](CC(C)C)C(=O)N[C@@H](Cc1ccc(Cl)cc1)C(=O)O, also called AcQChaDLpClF; Ac-Q Cha DL pClF) [P12 (Ac-Gln-Cha-Asp-Leu-pClPhe-OH)] : -9.4
Ac-Q[Cha]DL[Phe(4-Br)]-OH (SMILES CC(=O)N[C@@H](CCC(N)=O)C(=O)N[C@@H](CC1CCCCC1)C(=O)N[C@@H](CC(=O)O)C(=O)N[C@@H](CC(C)C)C(=O)N[C@@H](Cc1ccc(Br)cc1)C(=O)O, also called AcQChaDLpBrF; Ac-Q Cha DL pBrF) [P13 (Ac-Gln-Cha-Asp-Leu-pBrPhe-OH)] : -9.1
Ac-Q[Cha]DL[Phe(3,4-Cl2)]-OH (SMILES CC(=O)N[C@@H](CCC(N)=O)C(=O)N[C@@H](CC1CCCCC1)C(=O)N[C@@H](CC(=O)O)C(=O)N[C@@H](CC(C)C)C(=O)N[C@@H](Cc1ccc(Cl)c(Cl)c1)C(=O)O, also called AcQChaDLdiClF; Ac Q Cha D L diClF) [P14 (Ac-Gln-Cha-Asp-Leu-(3,4-di-Cl)Phe-OH)] : -9.8

Now look at this entry.
Enquiry: So what's the measured ΔG for this one? Ac-Q[Cha]DL[Phe(4-Me)]-OH (SMILES CC(=O)N[C@@H](CCC(N)=O)C(=O)N[C@@H](CC1CCCCC1)C(=O)N[C@@H](CC(=O)O)C(=O)N[C@@H](CC(C)C)C(=O)N[C@@H](Cc1ccc(C)cc1)C(=O)O, also called AcQChaDLpMeF; Ac-Q Cha DL pMeF) [P11 (Ac-Gln-Cha-Asp-Leu-pMePhe-OH)]
Return: -8.6
